protocol.details: Inhibition of hog gastric mucosa H/+K+ ATPase
Assay type: tissue-based
value.type: Log IC50

CNC(=O)c1cc(NCc2c(C)cccc2C)c2[nH]c(C)cc2n1	-5.5
Cc1cccc(C)c1CNc1cc(C(=O)N(C)C)nc2c(C)c(C)[nH]c12	-6.9
Cc1cccc(C)c1CNc1cc(C(=O)N(C)C)nc2c(Br)c(C)[nH]c12	-5
Cc1cccc(C)c1CNc1cc(C(=O)N(C)C)nc2c(C)c(C)n(Cc3ccccc3)c12	-5.1
Cc1cccc(C)c1CNc1cc(C(=O)N(C)C)nc2c(CO)c(C)[nH]c12	-5.6
Cc1cccc(C)c1CNc1cc(C(=O)N(C)C)nc2c(C)c(C)n(C)c12	-4.6
CCc1cccc(C)c1CNc1cc(C(=O)N(C)C)nc2c(Br)c(C)[nH]c12	-5
CCc1cccc(C)c1CNc1cc(C(=O)N(C)C)nc2cc(C)[nH]c12	-5.9
Cc1cc2nc(C(=O)N(C)C)cc(NCc3c(C)cccc3C)c2[nH]1	-6.1
